# Tested on: Fibroblast
# test.protocol: Incucyte cell viability with human fibroblast; further: unitless GR value; below 1 slowed growth and below 0 cell loss
# Assay type: toxicity, cell-based
# condition.set: 24 h, 10 µM, compound concentration 10 uM, replicate number 2
measurement.name: Growth Rate
Provide a numeric answer; units are not to be included.

compound: CO[C@H]1C[C@@H]2CC[C@@H](C)[C@@](O)(O2)C(=O)C(=O)N2CCCC[C@H]2C(=O)O[C@H]([C@H](C)C[C@@H]2CC[C@@H](O)[C@H](OC)C2)CC(=O)[C@H](C)/C=C(\C)[C@@H](O)[C@@H](OC)C(=O)[C@H](C)C[C@H](C)/C=C/C=C/C=C/1C [SIROLIMUS]
recorded.value: 0.84

compound: CC[C@H](CO)Nc1nc(Nc2cccc(-c3ccccn3)c2)c2ncn(C(C)C)c2n1.Cl.O
recorded.value: 0.49

compound: CN(C)[C@H]1CCN(c2cc(C(F)(F)F)c(C#N)c(Nc3cccc(CCC(=O)O)c3)n2)C1.O=C(O)C(F)(F)F
recorded.value: 0.72

With those in mind, consider the next compound.
Name the recorded Growth Rate for C[C@]12CC[C@@H]3c4ccc(O)cc4CC[C@H]3[C@@H]1C[C@H]1OC(=O)C[C@]12O .
0.48

###

# Tested on: HEK-293T
# test.protocol: Incucyte cell viability with HEK293T; further: unitless GR value; below 1 slowed growth and below 0 cell loss
# Assay type: toxicity, cell-based
# condition.set: human, 0 h, 10 µM, compound concentration 10 uM, replicate number 2
measurement.name: Growth Rate
Provide a numeric answer; units are not to be included.

Name the recorded Growth Rate for CCOC(=O)c1ccc(N2C(=O)C(O)=C(C(=O)c3ccc(OC)cc3)C2c2ccc(F)cc2)cc1 (centres undefined) .
0.85

What do you have for O=C(O)c1cc(F)c2nc(N3[C@@H]4CC[C@H]3C[C@@H](OCc3c(-c5ccccc5OC(F)(F)F)noc3C3CC3)C4)sc2c1 [TROPIFEXOR] ?
0.6

What do you have for O=C(O)CCn1c2c(c3ccccc31)C[C@H](NS(=O)(=O)c1ccc(F)cc1)CC2 ?
0.04

What do you have for CO[C@H]1C[C@@H]2CC[C@@H](C)[C@@](O)(O2)C(=O)C(=O)N2CCCC[C@H]2C(=O)O[C@H]([C@H](C)C[C@@H]2CC[C@@H](O)[C@H](OC)C2)CC(=O)[C@H](C)/C=C(\C)[C@@H](O)[C@@H](OC)C(=O)[C@H](C)C[C@H](C)/C=C/C=C/C=C/1C ?
-0.17

###

# System: U2OS
# test.protocol: Incucyte cell viability with U2OS; further: unitless GR value; below 1 slowed growth and below 0 cell loss
# Assay type: toxicity, cell-based
# condition.set: human, 12 h, 10 µM, compound concentration 10 uM, replicate number 1
measurement.name: Growth Rate
Provide a numeric answer; units are not to be included.

compound: C[C@@H]1OCC2(CCN(c3cnc(Sc4ccnc(N)c4Cl)c(N)n3)CC2)[C@@H]1N
recorded.value: 0.53

compound: C[C@]12CC[C@@H]3c4ccc(C(N)=O)cc4CC[C@H]3[C@@H]1CC=C2c1cncc(F)c1
recorded.value: 0.98

compound: O=C(Nc1snnc1C(=O)Nc1ccc(N2CCCC2)cc1)c1cncc(C(F)(F)F)c1
recorded.value: -0.58

compound: C=CC(=O)Nc1cccc(C)c1Nc1ncc2cc(-c3c(Cl)c(OC)cc(OC)c3Cl)ccc2n1
recorded.value: 0.25

compound: O=C(Nc1ccc(Cl)c(-c2ccccn2)c1)c1cccc(COc2ccc(Br)cc2CNCCO)c1.O=CO
recorded.value: 0.61

compound: Cl.Cl.N=C(N)NCCC[C@H](NC(=O)CC1(CC(=O)N2CCN(C3c4ccccc4NC(=O)c4ccccc43)CC2)CCCC1)C(=O)NCCn1c(=O)n(-c2ccccc2)n(-c2ccccc2)c1=O (stereo partly drawn)
recorded.value: 0.69

Name the recorded Growth Rate for COc1ccccc1-n1nc(C2CC(C)(C)OC(C)(C)C2)cc1-c1ccc(Cl)cc1 .
0.85

What do you have for O=C(O)c1cc(F)c2nc(N3[C@@H]4CC[C@H]3C[C@@H](OCc3c(-c5ccccc5OC(F)(F)F)noc3C3CC3)C4)sc2c1 [TROPIFEXOR] ?
0.99

###

# System: HEK-293T
# test.protocol: Incucyte cell viability with HEK293T; further: unitless GR value; below 1 slowed growth and below 0 cell loss
# Format: toxicity, cell-based
# condition.set: human, 0 h, 10 µM, compound concentration 10 uM, replicate number 2
measurement.name: Growth Rate
Provide a numeric answer; units are not to be included.

Examples from the recorded data:
molecule: CC1(C)CC(=O)c2c(SCCO)sc(-c3nccs3)c2C1
Growth Rate: 0.82
//
molecule: Cn1cc(-c2ccc(-c3cncc(Cl)c3N3CCC4(CCNC4=O)CC3)cc2)cn1
Growth Rate: 0.95
//
molecule: C[S+]([O-])c1ccc(-c2nc(-c3cccc(I)c3)c(-c3ccncc3)[nH]2)cc1 (stereo not given)
Growth Rate: -1

Name the recorded Growth Rate for Cn1c(=O)n(CCCO)c(=O)c2c1nc(Oc1cccc(Cl)c1)n2Cc1ccc(Cl)cc1 .
0.3

What do you have for CCC(=O)Nc1cc(Nc2cc(NC3CC3)n3ncc(C#N)c3n2)ccc1C ?
-0.72

What do you have for CC(C)NC(=O)[C@H]1CCC[C@H]1Nc1nc(Nc2ccc(C(=O)N(C)C3CCN(C)CC3)cc2)ncc1Cl ?
-1

What do you have for O=C(O)c1ccnc(N2CC(O)(c3ccc(OCc4c(-c5c(Cl)cccc5Cl)noc4C4CC4)cc3Cl)C2)c1 [CILOFEXOR] ?
0.73

What do you have for Cl.c1ccc2c(c1)CCC[C@H]2Nc1nc2ccccc2[nH]1 ?
0.46

What do you have for Cc1nnc2n1-c1sc3c(c1C(c1ccccc1Cl)=NC2)C[C@H](C(=O)N1CCOCC1)C3 ?
-0.35

What do you have for CN(C)Cc1cccc(NC(=C2C(=O)Nc3cc(C(N)=O)ccc32)c2ccccc2)c1 ?
-0.24

###

# System: Fibroblast
# test.protocol: Incucyte cell viability with human fibroblast; further: unitless GR value; below 1 slowed growth and below 0 cell loss
# Assay type: toxicity, cell-based
# condition.set: 18 h, 10 µM, compound concentration 10 uM, replicate number 2
measurement.name: Growth Rate
Provide a numeric answer; units are not to be included.

compound: CS(=O)(=O)O.C[C@H](NC(=O)c1cnc2n1[C@](C)(Cc1ccc(C#N)cc1)C(=O)N2c1cc(Cl)c(F)c(Cl)c1)C(=O)NC1(c2ccccn2)CC1
Growth Rate: 0.61
--
compound: C[C@H](CCC(=O)[O-])[C@H]1CC[C@H]2[C@@H]3[C@@H](O)C[C@@H]4C[C@H](O)CC[C@]4(C)[C@H]3CC[C@]12C.[Na+]
Growth Rate: 0.77
--
compound: O=C(NS(=O)(=O)N1CCC1)c1cc(C2CC2)c(OCC23CC4CC(CC(C4)C2)C3)cc1F
Growth Rate: 0.31
--
compound: CN1CC[C@@]23CCCC[C@@H]2[C@@H]1Cc1ccc(O)cc13.O=C(O)C(O)C(O)C(=O)O
Growth Rate: 0.13
--
compound: N#C/C(=C\c1ccc(O)c(O)c1)C(=O)OCCc1cccs1
Growth Rate: 0.58

Lab request: please report Growth Rate under test system Fibroblast for CCCCCCCC/C=C\CCCCCCCC(=O)NCc1ccc(O)c(OC)c1 [OLVANIL]
0.53

What do you have for NC(=O)c1cc(-c2ccnc(NC3CCCCC3)c2)nc(N2CCNCC2)c1 ?
0.65

What do you have for CS(=O)(=O)NC(=O)CCC/C=C\C[C@H]1C(=O)C[C@@H](O)[C@@H]1/C=C/[C@@H](O)COc1ccccc1 [SULPROSTONE] ?
0.47

What do you have for CC(C)(C)S(=O)(=O)c1ccc2nccc(Nc3n[nH]c4ccc(F)cc34)c2c1 ?
0.31

What do you have for CCCCC/C=C/C=C1/C(=O)C=C[C@@H]1C/C=C\CCCC(=O)O ?
0.89

###

# Test system: Fibroblast
# test.protocol: Incucyte cell viability with human fibroblast; further: unitless GR value; below 1 slowed growth and below 0 cell loss
# Assay type: toxicity, cell-based
# condition.set: 0 h, 10 µM, compound concentration 10 uM, replicate number 1
measurement.name: Growth Rate

Lab request: please report Growth Rate under test system Fibroblast for COCCNC1CCC(Nc2cc(-c3csc(NCC4(C#N)CCOCC4)n3)c(Cl)cn2)CC1 (stereo not drawn)
-1

What do you have for Cl.O=C(NCCN1CCC2(CC1)C(=O)NCN2c1cccc(F)c1)c1ccc2ccccc2c1 ?
-1

What do you have for CCCOc1cnc(CN/C=C2\C(=O)NC(=O)c3ccc(I)cc32)cc1O ?
0.29

What do you have for CC(C)c1cnc(NC(=O)Cc2ccccc2)s1 ?
-0.99

What do you have for CS(=O)(=O)NC(=O)CCC/C=C\C[C@H]1C(=O)C[C@@H](O)[C@@H]1/C=C/[C@@H](O)COc1ccccc1 ?
-1

What do you have for Nc1nccc(-c2ccn3c(N)nccc23)n1 ?
0.88

What do you have for COc1cc(C)c(S(=O)(=O)N(C)CCOCC(=O)N(C)[C@H]2CCC[C@@H](N3CCN(C)CC3)C2)c(C)c1.O=C(O)C(O)C(O)C(=O)O ?
-1

What do you have for c1cnc2cc3c(cc2n1)[C@@H]1CNC[C@H]3C1 ?
0.28

What do you have for C[C@@H](NC(=O)Cc1ccc(C2CC2)cc1)c1ccc(OCC(F)(F)F)cn1 ?
-0.4

What do you have for CN1CCN(c2ccnc(NCCc3ccccc3)n2)CC1 [TP-040n] ?
-1

What do you have for CC(C)(C)NC(=O)c1cncn1C1CCN(c2ccc(-c3nnc(C(F)(F)F)o3)cn2)CC1 ?
-1

What do you have for CN1CCN(c2ccc(-n3cc(-c4ccncc4OCC4CCNCC4)cn3)cc2)CC1 ?
0.3
